- target-or-system: HIV-1 RT (Human immunodeficiency virus type 1 group M subtype B, UniProt P03366)
- Construct: The heterodimeric p66/p51 RT was eluted with an imidazole gradient; p66 and p51 derived from p66 by proteolytic cleavage of the C-terminal RNAse H domain; made in house; host or cells: E. coli (M15 for the His-tagged subunits)
- assay-overview: biochemical
pKi: −log10 of the molar value. Where no end group is shown, it is not given here.
parameter-measured: pKi

- GTKWLTEWIPLTAE [Peptide P27]: 7.30
- GTKAATEVIPLTEEAE [Peptide P6]: 5.24
- GTKALTEVIPATEEAE [Peptide P12]: 4.66
- GTKALTEVIPLAEEAE [Peptide P13]: 4.99
- GTKWLTEVWPL [Peptide P16]: 4.84
- GAKTETLVIPETELEA [Pscramble]: 4.21
- GTKALTAVIPLTEEAE [Peptide P8]: 4.24
- KWLTEWIPLTAEAE [Peptide P26]: 5.74
- KWLTEWIPLTAE [Peptide P29]: 6.00
- GTKWATEWAPLTAEAE [Peptide P28]: 5.70
- GTKALTEVAPLTEEAE [Peptide P10]: 5.14
- GTKALAEVIPLTEEAE [Peptide P7]: 4.87
- GTKALTEVIALTEEAE [Peptide P11]: 5.15
- GTKAWTEVWPL [Peptide P17]: 4.46
- GTKALTEAIPLTEEAE [Peptide P9]: 4.82
- GTKAATEVIPLT [Peptide P19]: 4.31
- GTKWLTEWIPL [Peptide P24]: 6.15

meta.source: patent US20110294728A1
